Test system: Liver microsomes
Settings: human, 10 min, 300 µM
Description: Metabolic stability of the compound in human liver microsomes assessed as stability rate per mg of protein at 300 uM after 10 mins by LC-MS/MS analysis in presence of NADPH
MEASURED_PARAMETER: Stability (nmol/min)

P = N#Cc1c(O)nc(SCc2ccccc2Cl)c2cccc(F)c12
Q = N#Cc1ncccc1CSc1nc(O)c(C#N)c2ccc(F)cc12
**Q:** Between P and Q , which one has the lower reported Stability value? Answer by stating the label of the chosen item.
**A:** Q

====

Test system: Liver microsomes
Settings: human, 10 min, 300 µM
MEASURED_PARAMETER: Stability (nmol/min)

1 = N#Cc1ncccc1CSc1nc(O)c(C#N)c2c1CCCC2
2 = N#Cc1c2c(c(SCc3c(Cl)cccc3Cl)[nH]c1=O)CCCC2
3 = N#Cc1c(O)nc(Sc2ccccc2Cl)c2c1CCCC2
4 = N#Cc1ccc2c(C#N)c(O)nc(SCc3ccccc3Cl)c2c1
**Q:** Rank the 4 compounds shown above by Stability, smallest number first. Thanks in advance for listing the labels in the requested order.
**A:** 2, 1, 3, 4
(2: 0 nmol/min, 1: 0.04 nmol/min, 3: 0.07 nmol/min, 4: 0.25 nmol/min)
